Measured values drawn from PubChem BioAssay (NCATS) for this set.

ASSAY INFO: qHTS Screen of the MIPE 4.0 Collection Against Ewings Sarcoma (TC32) (AID 1259256); also: nearly all actives have a fitted effect of over 45% in size
DETAILS: TC32 Ewing sarcoma viability, CellTiter-Glo, 48 h; series mostly up to 45.8 µM
Results filed as inconclusive are left out. Activity calls are given as the source filed them. Calls follow the shape of the dose curve; as a rule, active = well fitted inhibition curve with a large enough effect; inconclusive = small, poorly fitted or top-dose-only effect; inactive = no such curve, though single readings can be large or run the other way.
The reply should be one of these categories: 1 for active, 0 for inactive

Request: What did the test return for CC(C)(C)C(=O)Oc1ccc(S(=O)(=O)Nc2ccccc2C(=O)NCC(=O)O)cc1 ?
Result: 0

Request: What did the test return for CC(C)(Oc1ccc(C2CC2(Cl)Cl)cc1)C(=O)O (stereo not drawn) ?
Result: 1

Request: What did the test return for CC(C(=O)O)c1cccc(C(=O)c2ccccc2)c1 (stereo not drawn) ?
Result: 1

---

System: ICS
ASSAY INFO: qHTS profiling for inhibitors of Plasmodium falciparum proliferation (AID 504749); also: nearly all actives have a fitted effect of over 60% in size
DETAILS: P. falciparum in erythrocytes, SYBR Green DNA, 72 h; series mostly up to 28.7 µM
Inconclusive results are not listed. Calls of active or inactive are those of the source. Calls follow the shape of the dose curve; as a rule, active = well fitted inhibition curve with a large enough effect; inconclusive = small, poorly fitted or top-dose-only effect; inactive = flat fitted curve, though single readings scatter.
The reply should be one of these categories: active, inactive

For orientation, consider the following solved cases.
> print(dat)
                                   compound  assay.system  class.name
1  CN1CCN2c3ccccc3Cc3ccccc3C2C1 (configuration not stated)           ICS    inactive
2  CS(=O)(=O)CCNCc1ccc(-c2ccc3ncnc(Nc4ccc(OCc5cccc(F)c5)c(Cl)c4)c3c2)o1           ICS    inactive
3  CCCNCC(O)COc1ccccc1C(=O)CCc1ccccc1 (configuration not stated)           ICS      active
4             COc1ccc2[nH]cc(CCNC(C)=O)c2c1           ICS    inactive
5  Cc1cn([C@H]2C=C[C@@H](CO)O2)c(=O)[nH]c1=O           ICS    inactive

Request: What did the test return for O=C1c2c(O)ccc(O)c2C(=O)c2c(NCCNCCO)ccc(NCCNCCO)c21 ?
Result: active

Request: What did the test return for CN(C)CCC=C1c2ccccc2C=Cc2ccccc21 ?
Result: active

Request: What did the test return for CC[C@@]1(O)C(=O)OCc2c1cc1n(c2=O)Cc2cc3c(CN(C)C)c(O)ccc3nc2-1 ?
Result: active

Request: What did the test return for Cc1cc(C(C)(C)C)c(O)c(C)c1CC1=NCCN1 ?
Result: inactive

---

Tested on: CASKI
ASSAY INFO: Primary qHTS to identify gynecologic anti-cancer compounds using libraries of approved drugs and bioactive compounds (AID 1345084); also: nearly all actives have a fitted effect of over 55% in size
DETAILS: Gynecologic cancer cell panel viability, ATPlite luminescence, 48 h; series mostly up to 57.5 µM
Results filed as inconclusive are left out. Calls of active or inactive are those of the source. Calls follow the shape of the dose curve; as a rule, active = well fitted cell-killing curve with a large enough effect; inconclusive = small, poorly fitted or top-dose-only effect, or effect the other way; inactive = flat fitted curve, though single readings scatter.
The reply should be one of these categories: active, inactive

> print(dat)
                                   compound  class.name
1  CC(COc1ccccc1)N(CCCl)Cc1ccccc1 (stereo not drawn)    inactive

Request: What did the test return for CCOC(=O)c1ncn2c1CN(C)C(=O)c1cc(F)ccc1-2 ?
Result: inactive

Request: What did the test return for CN1CCN(CCCN2c3ccccc3Sc3ccc(Cl)cc32)CC1 ?
Result: inactive

Request: What did the test return for CN(C)C(=N)N=C(N)N ?
Result: inactive

Request: What did the test return for COc1nc(C)nc(Cl)c1NC1=NCCN1 ?
Result: inactive

Request: What did the test return for CCOC(=O)Nc1ccc(NCc2ccc(F)cc2)nc1N ?
Result: inactive

Request: What did the test return for CC1(C)O[C@H]2CC(=O)OC[C@]23[C@H]2CC[C@@]4(C)[C@H](c5ccoc5)OC(=O)[C@H]5O[C@]54[C@]2(C)C(=O)C[C@@H]13 ?
Result: inactive

Request: What did the test return for CC12CC3CC(C)(C1)CC(N)(C3)C2 ?
Result: inactive

Request: What did the test return for O=C1c2c(O)ccc(O)c2C(=O)c2c(NCCNCCO)ccc(NCCNCCO)c21 ?
Result: active

Request: What did the test return for Nc1ccn([C@H]2CC[C@@H](CO)O2)c(=O)n1 ?
Result: inactive

Request: What did the test return for Nc1c2c(nc3ccccc13)CCCC2 ?
Result: inactive

Request: What did the test return for CC(C(=O)O)c1cccc(C(=O)c2ccccc2)c1 (stereo not drawn) ?
Result: inactive

Request: What did the test return for COc1ccc2[nH]cc(CCNC(C)=O)c2c1 ?
Result: inactive

---

ASSAY SYSTEM: Glucocorticoid receptor (Homo sapiens)
ASSAY INFO: qHTS assay for small molecule agonists of glucocorticoid receptor signaling (AID 588532);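 also: 100% = dexamethasone at 0.1 µM and 0% = DMSO only wells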
DETAILS: HeLa MMTV-bla, beta-lactamase ratio, agonist, 18 h; stronger effect = higher value; percent of dexamethasone control, DMSO zero
Inconclusive results are not listed.
# maps each entry to its activation
Return type: number; implicit unit %.

Examples from the recorded data:
> print(dat)
                                   molecule  property.label  result
1  CC(C)(Oc1ccc(C2CC2(Cl)Cl)cc1)C(=O)O (centres undefined)      activation   -2.49
2  CC(C)Cc1ccc(C(C)C(=O)O)cc1 (centres undefined)      activation   -8.45
3  O=C(CCCN1CCC(O)(c2ccc(Cl)cc2)CC1)c1ccc(F)cc1      activation   -2.91

Request: Recall the recorded activation for CC#C[C@]1(O)CC[C@H]2[C@@H]3CCC4=CC(=O)CCC4=C3[C@@H](c3ccc(N(C)C)cc3)C[C@@]21C with Glucocorticoid receptor (Homo sapiens) and state it.
Result: -13.5

---

Test system: W2
ASSAY INFO: qHTS profiling for inhibitors of Plasmodium falciparum proliferation (AID 504749); also: nearly all actives have a fitted effect of over 60% in size
DETAILS: P. falciparum in erythrocytes, SYBR Green DNA, 72 h; series mostly up to 28.7 µM
Inconclusive results are not listed. Calls of active or inactive are those of the source. The call rests on the fitted dose curve; in most records, active means well fitted inhibition curve with a large enough effect; inconclusive means small, poorly fitted or top-dose-only effect; inactive means flat fitted curve, though single readings scatter.
The reply should be one of these categories: active, inactive

For orientation, consider the following solved cases.
> print(dat)
                                   compound  assay.system  class.name
1  Cc1ccc(-c2cc(C(F)(F)F)nn2-c2ccc(S(N)(=O)=O)cc2)cc1            W2      active
2  CS(=O)(=O)Nc1ccc([N+](=O)[O-])cc1Oc1ccccc1            W2    inactive
3                             NCCc1cnc[nH]1            W2    inactive
4  CC(C)(C)C(=O)Oc1ccc(S(=O)(=O)Nc2ccccc2C(=O)NCC(=O)O)cc1            W2    inactive
5  O=C1c2c(O)ccc(O)c2C(=O)c2c(NCCNCCO)ccc(NCCNCCO)c21            W2      active
6  CCCNCC(O)COc1ccccc1C(=O)CCc1ccccc1 (stereo not drawn)            W2      active

Request: What did the test return for OCCN1CCN(CCCN2c3ccccc3Sc3ccc(C(F)(F)F)cc32)CC1 ?
Result: active

Request: What did the test return for NC(=O)NO ?
Result: inactive

Request: What did the test return for Cc1cn([C@H]2C[C@H](N=[N+]=[N-])[C@@H](CO)O2)c(=O)[nH]c1=O ?
Result: inactive

Request: What did the test return for CC(COc1ccccc1)N(CCCl)Cc1ccccc1 (stereo not drawn) ?
Result: active

Request: What did the test return for CC(C)Cc1ccc(C(C)C(=O)O)cc1 (stereo not drawn) ?
Result: inactive

Request: What did the test return for CC(C)(Oc1ccc(C2CC2(Cl)Cl)cc1)C(=O)O (stereo not drawn) ?
Result: inactive

Request: What did the test return for CCOC(=O)c1ncn2c1CN(C)C(=O)c1cc(F)ccc1-2 ?
Result: inactive

Request: What did the test return for CC(=O)OCC(CCn1cnc2cnc(N)nc21)COC(C)=O ?
Result: inactive

Request: What did the test return for CN(CCOc1ccc(NS(C)(=O)=O)cc1)CCc1ccc(NS(C)(=O)=O)cc1 ?
Result: inactive

Request: What did the test return for Cc1cn([C@H]2C=C[C@@H](CO)O2)c(=O)[nH]c1=O ?
Result: inactive

Request: What did the test return for CC(C)C(=O)Nc1ccc([N+](=O)[O-])c(C(F)(F)F)c1 ?
Result: inactive

Request: What did the test return for Cc1cnc(C(=O)NCCc2ccc(S(=O)(=O)NC(=O)NC3CCCCC3)cc2)cn1 ?
Result: inactive

Request: What did the test return for CN1C(C(=O)Nc2ccccn2)=C(O)c2ccccc2S1(=O)=O ?
Result: inactive

Request: What did the test return for Cn1c(=O)c2[nH]cnc2n(C)c1=O ?
Result: inactive

---

ASSAY INFO: Quantitative High-Throughput drug screen in 47 multiple myeloma cell lines against the NCATS MIPE library collection: H1112_PLB cell viability assay (AID 1918967; also: nearly all actives have a fitted effect of over 30% in size)
DETAILS: H1112 myeloma cells viability, ATP luminescence, 48 h; series mostly up to 45.8 µM
Source text: PI: Beverly A. Mock Ph.D. Laboratory of Cancer Biology and Genetics, Center for Cancer Research, National Cancer Institute, National Institute of Health, Bethesda, Maryland […] 5; Detector; 425V; Luminescence; Viewlux PerkinElmer. […] 1. […] Briefly, the corresponding myeloma cell lines were screened in 1,536-well plates with 500 cells, 5-uL per well for inhibition of cell viability (assessed by measuring ATP levels with CellTiterGlo). […]
Results filed as inconclusive are left out. Calls of active or inactive are those of the source. Calls come from the whole dose curve; as a rule, active = well fitted cell-killing curve with a large enough effect; inconclusive = small, poorly fitted or top-dose-only effect, or effect the other way; inactive = no such curve, though single readings can be large or run the other way.
The reply should be one of these categories: active, inactive

For orientation, consider the following solved cases.
> print(dat)
                                   molecule  class.name
1   CCOC(=O)c1ncn2c1CN(C)C(=O)c1cc(F)ccc1-2    inactive
2  CC1(CN2CCC(n3c(=O)[nH]c4ccccc43)CC2)OCc2ccccc2-n2cccc21 (configuration not stated)      active

Request: What did the test return for CCN1CCCC1CNC(=O)c1cc(S(=O)(=O)CC)c(N)cc1OC (configuration not stated) ?
Result: inactive

Request: What did the test return for Cn1c(=O)c2c(ncn2C)n(C)c1=O ?
Result: inactive

Request: What did the test return for COc1cc2nc(N3CCN(C(=O)C4COc5ccccc5O4)CC3)nc(N)c2cc1OC (configuration not stated) ?
Result: active

Request: What did the test return for Cn1ccc2cc3c(cc21)CCN3C(=O)Nc1cccnc1 ?
Result: active

Request: What did the test return for CC#C[C@]1(O)CC[C@H]2[C@@H]3CCC4=CC(=O)CCC4=C3[C@@H](c3ccc(N(C)C)cc3)C[C@@]21C ?
Result: active

Request: What did the test return for Fc1ccc([C@@H]2CCNC[C@H]2COc2ccc3c(c2)OCO3)cc1 ?
Result: active

Request: What did the test return for C[C@@H]1CC(=O)NN=C1c1ccc(NN=C(C#N)C#N)cc1 ?
Result: active

Request: What did the test return for CCC1(c2ccccc2)C(=O)NCNC1=O ?
Result: active

Request: What did the test return for CN(C)CCCN1c2ccccc2CCc2ccc(Cl)cc21 ?
Result: active

Request: What did the test return for CNCCCC12CCC(c3ccccc31)c1ccccc12 ?
Result: active

Request: What did the test return for COc1ccccc1OCC(O)CN1CCN(CC(=O)Nc2c(C)cccc2C)CC1 (configuration not stated) ?
Result: inactive

Request: What did the test return for CCOC(=O)Nc1ccc(NCc2ccc(F)cc2)nc1N ?
Result: inactive

Request: What did the test return for COc1cc2nc(N3CCN(C(=O)c4ccco4)CC3)nc(N)c2cc1OC ?
Result: active

Request: What did the test return for CS(=O)(=O)CCNCc1ccc(-c2ccc3ncnc(Nc4ccc(OCc5cccc(F)c5)c(Cl)c4)c3c2)o1 ?
Result: active

Request: What did the test return for O=C(CCCN1CCC(O)(c2ccc(Cl)cc2)CC1)c1ccc(F)cc1 ?
Result: inactive

Request: What did the test return for COc1ccccc1OCCNCC(O)COc1cccc2[nH]c3ccccc3c12 (configuration not stated) ?
Result: active

Request: What did the test return for CN1CCN2c3ccccc3Cc3ccccc3C2C1 (configuration not stated) ?
Result: active

Request: What did the test return for Cc1cc(C(C)(C)C)c(O)c(C)c1CC1=NCCN1 ?
Result: inactive

Request: What did the test return for Clc1ccccc1C(c1ccccc1)(c1ccccc1)n1ccnc1 ?
Result: active
